Recorded Potency values for a group of compounds are listed next.
# TESTED ON: Lysosomal alpha-glucosidase (Homo sapiens) (UniProt P10253)
# ASSAY PROTOCOL: qHTS Assay for Activators of Human alpha-Glucosidase as a Potential Chaperone Treatment of Pompe Disease; also: nearly all actives have a fitted effect of over 80% in size; also: potency is read from the fitted curve at half-maximal effect
# CONDITION INFO: purified enzyme, 4-MU-alpha-glucoside fluorescence, 20 min; series mostly up to 76.9 µM
The whole screen tested about 200,000 compounds, of which about 720 (0.36%) were called active. About 8% were inconclusive and are not listed. The list shows a part of the results.

{"COMPOUND": "Cc1onc(-c2ccccc2Cl)c1C(=O)Nc1cccc(-c2nc3ncccn3c2C)c1", "Potency": "35.5 µM (active)"}
{"COMPOUND": "N#Cc1c(N)n(CCNC(=O)c2cccs2)c2nc3ccccc3nc12", "Potency": "35.5 µM (active)"}
{"COMPOUND": "Cn1c(C(=O)NCC2CCCO2)cc2c(=O)n3ccccc3nc21 (configuration not stated)", "Potency": "31.6 µM (active)"}
{"COMPOUND": "O=C(NC1CC1)c1cc2c(s1)-c1ccccc1OC2", "Potency": "35.5 µM (active)"}
{"COMPOUND": "Cc1csc2ncc(C(=O)Nc3ccon3)c(=O)n12", "Potency": "35.5 µM (active)"}
{"COMPOUND": "N#Cc1c(-c2ccccc2F)cc(-c2cccnc2)nc1N", "Potency": "35.5 µM (active)"}
{"COMPOUND": "O=C(O)c1cc2c(s1)-c1ccccc1OC2", "Potency": "31.6 µM (active)"}
{"COMPOUND": "COC(=O)c1cc2c(s1)-c1ccccc1OC2", "Potency": "35.5 µM (active)"}
{"COMPOUND": "CC12CCC(=O)N1c1c(sc3nc(N4CCOCC4)c4c(c13)CCCC4)C(=O)N2 (configuration not stated)", "Potency": "35.5 µM (active)"}
{"COMPOUND": "N#Cc1c(-c2ccco2)cc(-c2ccccn2)nc1N", "Potency": "28.2 µM (active)"}
{"COMPOUND": "CC(C)OC(=O)c1c(N)n(CCCN2CCOCC2)c2nc3ccccc3nc12", "Potency": "39.8 µM (active)"}
{"COMPOUND": "COC(=O)c1c(N)n(CCCN2CCOCC2)c2nc3ccccc3nc12", "Potency": "31.6 µM (active)"}

* * *

# TESTED ON: Lysosomal alpha-glucosidase (Homo sapiens) (UniProt P10253)
# ASSAY PROTOCOL: qHTS Assay for Activators of Human alpha-Glucosidase as a Potential Chaperone Treatment of Pompe Disease; also: nearly all actives have a fitted effect of over 80% in size
# CONDITION INFO: purified enzyme, 4-MU-alpha-glucoside fluorescence, 20 min; series mostly up to 76.9 µM
Hit rate of the full screen: of about 200,000 compounds, about 720 (0.36%) were called active. About 8% were inconclusive and are not listed. Calls follow the shape of the dose curve; as a rule, active = well fitted activation curve with a large enough effect; inconclusive = small, poorly fitted or top-dose-only effect, or effect the other way, or another doubt; inactive = flat fitted curve, though single readings scatter. This is one part of the list.
Classes used: TRUE for active, FALSE for inactive

{"COMPOUND": "O=c1oc2cc(Oc3c([N+](=O)[O-])cc(C(F)(F)F)cc3[N+](=O)[O-])ccc2c2c1CCCC2", "LABEL CLASS": "TRUE"}
{"COMPOUND": "Cc1c(Cc2ccccc2)c(=O)oc2c(CN(C)C)c(O)c(Cl)cc12", "LABEL CLASS": "TRUE"}
{"COMPOUND": "CCOC(=O)c1cnc2cc(C)ccn2c1=O", "LABEL CLASS": "TRUE"}
{"COMPOUND": "O=c1[nH]c(=O)n(Cc2ccccc2)c2nc(-c3ccco3)cc(C(F)(F)F)c12", "LABEL CLASS": "TRUE"}
{"COMPOUND": "CC(C)(C)c1cc(C(F)(F)F)c(C#N)c(=O)[nH]1", "LABEL CLASS": "TRUE"}
{"COMPOUND": "COC(=O)C1=CNC=C(C(=O)OC)C1c1ccc(Cl)cc1", "LABEL CLASS": "TRUE"}
{"COMPOUND": "Cc1cc(C)c2c(n1)nn1c(NCCN3CCOCC3)cc(C)nc21", "LABEL CLASS": "TRUE"}
{"COMPOUND": "COc1ccc(/C=C/c2nnc(NC(=O)COc3cccc(C)c3)s2)cc1", "LABEL CLASS": "TRUE"}
{"COMPOUND": "CCC(=O)N1N=C(c2ccc(NS(=O)(=O)CC)cc2)CC1c1ccc(C)cc1 (stereo unspecified)", "LABEL CLASS": "TRUE"}
{"COMPOUND": "N#Cc1c(C(F)(F)F)cc(-c2cccc(Cl)c2)[nH]c1=O", "LABEL CLASS": "TRUE"}
{"COMPOUND": "CCOC(=O)c1cnc2sc3c(n2c1=O)CCCC3", "LABEL CLASS": "TRUE"}
{"COMPOUND": "COc1ccc(-c2cn3cccnc3n2)cc1Br", "LABEL CLASS": "TRUE"}
{"COMPOUND": "CCCn1c(=O)[nH]c(=O)c2c(C(=O)OCC)cc(-c3cccs3)nc21", "LABEL CLASS": "TRUE"}
{"COMPOUND": "CCOCC(=O)Nc1cc(-c2cn3cccnc3n2)ccc1C", "LABEL CLASS": "TRUE"}
{"COMPOUND": "COc1cc(OC)c(-c2nc3ccccc3s2)cc1OC", "LABEL CLASS": "TRUE"}
{"COMPOUND": "CC(NC(=O)OC(C)(C)C)C(=O)Oc1ccc2ccc(=O)oc2c1 (stereo unspecified)", "LABEL CLASS": "TRUE"}
{"COMPOUND": "O=C(Oc1ccc2ccc(=O)oc2c1)C1CCCCC1", "LABEL CLASS": "TRUE"}
{"COMPOUND": "CC(=O)c1cc2cc(O)ccc2o1", "LABEL CLASS": "TRUE"}
{"COMPOUND": "FC(F)(F)Oc1ccc(-c2cn3cccnc3n2)cc1", "LABEL CLASS": "TRUE"}
{"COMPOUND": "COC(=O)C1=CN(C)C=C(C(=O)OC)C1c1ccc(Cl)cc1Cl", "LABEL CLASS": "TRUE"}
{"COMPOUND": "O=c1oc2c(CN3CCOCC3)c(O)ccc2c2c1CCCC2", "LABEL CLASS": "TRUE"}
{"COMPOUND": "COc1ccc(C2CC(c3ccccc3)=NN2c2ccc(Cl)c(C(=O)O)c2)cc1 (stereo unspecified)", "LABEL CLASS": "TRUE"}
{"COMPOUND": "CC(C)n1c(=NC(=O)c2ccco2)c(C#N)cc2c(=O)n3ccccc3cc21", "LABEL CLASS": "TRUE"}
{"COMPOUND": "COc1ccc(-c2n[nH]c(C(F)(F)F)c2-c2cc3ccccc3o2)c(O)c1", "LABEL CLASS": "TRUE"}
{"COMPOUND": "CCNc1nc(N)c(C(=C(C#N)C#N)c2ccccc2)s1", "LABEL CLASS": "TRUE"}
{"COMPOUND": "COc1ccc(-c2cn3cccnc3n2)cc1F", "LABEL CLASS": "TRUE"}
{"COMPOUND": "Cc1c(C)c2cc(Cl)c(O)c(CN(C)C)c2oc1=O", "LABEL CLASS": "TRUE"}
{"COMPOUND": "FC(F)(F)c1cc(-c2cccs2)nc2ncnn12", "LABEL CLASS": "TRUE"}
{"COMPOUND": "CC(=O)Nc1ccc(C2=NN(c3ccccc3)C(c3cccs3)C2)cc1 (stereo unspecified)", "LABEL CLASS": "TRUE"}
{"COMPOUND": "CCC12OC(=N)C(C#N)(C1C)C(C#N)(C#N)C(c1ccccc1)O2 (stereo unspecified)", "LABEL CLASS": "TRUE"}
{"COMPOUND": "Cc1cc(C)c2c(n1)nn1c(NCCOCCO)cc(C)nc21", "LABEL CLASS": "TRUE"}
{"COMPOUND": "COCCNc1cc(C)nc2c3c(C)cc(C)nc3nn12", "LABEL CLASS": "TRUE"}
{"COMPOUND": "Nc1nc2nc(-c3cccs3)cc(C(F)(F)F)n2n1", "LABEL CLASS": "TRUE"}
{"COMPOUND": "CCOC(=O)C1=C(C)NC2=C(C(=O)CC(C)(C)C2)C1c1cccc(C)n1 (stereo unspecified)", "LABEL CLASS": "TRUE"}
{"COMPOUND": "CCOC(=O)/C(C#N)=C/c1cn(CCC(=O)O)nc1-c1ccc(Br)cc1", "LABEL CLASS": "FALSE"}
{"COMPOUND": "CCCS(=O)(=O)n1nc(-c2ccc(Br)cc2)cc1N", "LABEL CLASS": "TRUE"}
{"COMPOUND": "O=C(O)c1cc(-c2ccc(Cl)s2)nc2ccccc12", "LABEL CLASS": "TRUE"}
{"COMPOUND": "CC(C)(C)OC(=O)NCCC(=O)Oc1ccc2ccc(=O)oc2c1", "LABEL CLASS": "TRUE"}
{"COMPOUND": "NS(=O)(=O)c1ccc(N2N=C(c3ccccc3)CC2c2ccccc2)cc1 (stereo unspecified)", "LABEL CLASS": "TRUE"}
{"COMPOUND": "Cc1cc(C(F)(F)F)c(C#N)c(=O)[nH]1", "LABEL CLASS": "TRUE"}
{"COMPOUND": "CC(C)(O[C@@H]1O[C@H](CO)[C@@H](O)[C@H](O)[C@H]1O)[C@H]1Cc2cc3ccc(=O)oc3cc2O1", "LABEL CLASS": "TRUE"}
{"COMPOUND": "COC(=O)C1=CN(C)C=C(C(=O)OC)C1c1ccccc1Cl", "LABEL CLASS": "TRUE"}
{"COMPOUND": "COc1cccc(-c2cc(C(F)(F)F)c(C#N)c(=O)[nH]2)c1", "LABEL CLASS": "TRUE"}
{"COMPOUND": "Cc1ccc(-c2cn3cccnc3n2)cc1", "LABEL CLASS": "TRUE"}
{"COMPOUND": "COC(=O)C1=C(C)NC2=C(C(=O)CCC2)C1c1cccc(C)n1 (stereo unspecified)", "LABEL CLASS": "TRUE"}
{"COMPOUND": "Cc1cc(C)c2c(n1)nn1c(NCCCN(C)C)cc(C)nc21", "LABEL CLASS": "TRUE"}
